The values you see were collected from patent US6683103B2.

Give measured Peak Plasma Levels for each item. Keep answers brief.
Method summary: Oral half-life and peak plasma levels in rat
Assay type: in vivo
Condition details: in vivo
Give the number; µg/mL is assumed, so skip it.

Short answer for Cc1cc(C)c(NC(=O)c2sccc2S(=O)(=O)Nc2onc(C)c2Cl)c(C)c1C#N : Peak Plasma Levels was 20

Short answer for CC(=O)c1cc(C)cc(C)c1NC(=O)c1sccc1S(=O)(=O)Nc1onc(C)c1Cl : Peak Plasma Levels was 57

Short answer for Cc1cc2c(cc1CC(=O)c1sccc1S(=O)(=O)Nc1onc(C)c1Cl)OCO2 : Peak Plasma Levels was 173

Short answer for Cc1cc(C)c(NC(=O)c2sccc2S(=O)(=O)Nc2onc(C)c2Cl)c(C(=O)C(C)C)c1 : Peak Plasma Levels was 59

Short answer for Cc1cc(C)c(NC(=O)c2sccc2S(=O)(=O)Nc2onc(C)c2Cl)c(C)c1CC#N : Peak Plasma Levels was 40.2

Short answer for Cc1cc(C)c(NS(C)(=O)=O)c(C)c1NC(=O)c1sccc1S(=O)(=O)Nc1onc(C)c1Cl : Peak Plasma Levels was 2.6

Short answer for Cc1cc(C)c(NC(=O)c2sccc2S(=O)(=O)Nc2onc(C)c2Cl)c(C)c1CO : Peak Plasma Levels was 3

Short answer for Cc1cc(C)c(NC(=O)c2sccc2S(=O)(=O)Nc2onc(C)c2Cl)c(C(=O)C2CC2)c1 : Peak Plasma Levels was 53

---

System under test: human ETB receptor (Homo sapiens, UniProt P24530)
Construct: expressed in transfected cells; host or cells: COS7 cells
Sequence (P24530 27-442): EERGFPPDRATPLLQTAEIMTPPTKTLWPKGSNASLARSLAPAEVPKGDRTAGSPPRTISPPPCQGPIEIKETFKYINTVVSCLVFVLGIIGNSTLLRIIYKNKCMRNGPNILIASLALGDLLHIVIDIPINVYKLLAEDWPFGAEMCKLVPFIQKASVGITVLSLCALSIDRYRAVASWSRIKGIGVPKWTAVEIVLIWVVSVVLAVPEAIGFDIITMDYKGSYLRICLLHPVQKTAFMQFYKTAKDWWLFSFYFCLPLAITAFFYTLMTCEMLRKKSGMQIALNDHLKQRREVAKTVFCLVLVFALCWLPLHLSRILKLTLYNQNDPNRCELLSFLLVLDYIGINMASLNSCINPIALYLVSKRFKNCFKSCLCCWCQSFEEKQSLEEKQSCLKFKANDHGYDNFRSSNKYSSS
Method summary: Binding Test #2: inhibition of 125I-ET-1 binding to ETB receptors (transfected COS7 cell membranes)
Condition details: Table 1; † incubation at 24° C.; read-out: ETB
Give measured pIC50 for each item. Keep answers brief.
Hey, just a heads up that pIC50 is the negative log base 10 of the concentration in molar.

Short answer for Cc1noc(NS(=O)(=O)c2c(C(C)C)sc3ccccc23)c1Br : pIC50 was 4.97

Short answer for Cc1noc(NS(=O)(=O)c2ccsc2NC(=O)Nc2sccc2S(=O)(=O)Nc2onc(C)c2Br)c1Br : pIC50 was 5.92

Short answer for CCCC#Cc1ccc(S(=O)(=O)Nc2onc(C)c2Br)s1 : pIC50 was 5.25

Short answer for Cc1noc(NS(=O)(=O)c2sccc2CCc2ccccc2)c1Br : pIC50 was 4.43

Short answer for Cc1noc(NS(=O)(=O)c2ccc(-c3ccc(C(=O)O)cc3)s2)c1Br : pIC50 was 4.51

Short answer for Cc1noc(NS(=O)(=O)c2ccsc2C(=O)OC2CCCCC2)c1Cl : pIC50 was 4.47

Short answer for CCc1sc2ccc(C)cc2c1S(=O)(=O)Nc1onc(C)c1Br : pIC50 was 4.27

Short answer for Cc1ccc(/C=C/c2cc(-c3ccc(C)cc3)sc2S(=O)(=O)Nc2onc(C)c2Br)cc1 : pIC50 was 5.80

Short answer for Cc1cccc(-c2ccc(S(=O)(=O)Nc3onc(C)c3Br)s2)c1 : pIC50 was 5.38

Short answer for CCc1ccc(-c2ccc(S(=O)(=O)Nc3onc(C)c3Cl)s2)s1 : pIC50 was 6.15

Short answer for Cc1noc(NS(=O)(=O)c2sccc2Sc2ccccc2)c1Br : pIC50 was 5.43

---

System under test: human ETA receptors (Homo sapiens, UniProt P25101)
Construct: endogenous in cells; host or cells: TE 671 cells (ATCC HTB 139)
Sequence (P25101 21-427): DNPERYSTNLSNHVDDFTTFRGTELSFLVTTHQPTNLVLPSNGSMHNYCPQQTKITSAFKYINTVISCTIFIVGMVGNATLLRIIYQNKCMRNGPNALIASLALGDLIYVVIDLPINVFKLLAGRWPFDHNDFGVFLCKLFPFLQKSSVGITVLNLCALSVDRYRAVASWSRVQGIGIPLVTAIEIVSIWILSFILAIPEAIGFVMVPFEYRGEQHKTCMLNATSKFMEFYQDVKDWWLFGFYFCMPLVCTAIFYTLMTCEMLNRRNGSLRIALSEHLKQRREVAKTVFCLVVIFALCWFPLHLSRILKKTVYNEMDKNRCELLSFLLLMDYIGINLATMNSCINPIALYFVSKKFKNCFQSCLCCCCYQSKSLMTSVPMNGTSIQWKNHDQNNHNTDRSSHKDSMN
Method summary: Binding Test #1: inhibition of 125I-ET-1 binding to ETA receptors (TE 671 cell membranes)
Condition details: read-out: IC50 for ETA receptors
Readout type: IC50

Short answer for Cc1noc(NS(=O)(=O)c2ccccc2-c2ccccc2)c1Br : IC50 was ~1.6 nM

Short answer for Cc1noc(NS(=O)(=O)c2ccccc2-c2ccccc2)c1C : IC50 was ~8 nM

---

System under test: human ETA receptors (Homo sapiens)
Construct: endogenous in cells; host or cells: TE 671 cells (ATCC HTB 139)
Method summary: Binding Test #1: inhibition of 125I-ET-1 binding to ETA receptors (TE 671 cell membranes)
Condition details: Table 1; incubation at 4° C.; read-out: ETA
Give measured pIC50 for each item. Keep answers brief.
Hey, just a heads up that pIC50 is the negative log base 10 of the concentration in molar.

I looked up Cc1noc(NS(=O)(=O)c2cccn2-c2ccc(C(C)C)cc2)c1Br and its pIC50 for human ETA receptors (Homo sapiens) was 4.94

I looked up Cc1noc(NS(=O)(=O)c2ccc(-c3ccc(C(C)C)cc3)s2)c1Br and its pIC50 for human ETA receptors (Homo sapiens) was 5.80

I looked up Cc1noc(NS(=O)(=O)c2cccs2)c1Br and its pIC50 for human ETA receptors (Homo sapiens) was 7.02

I looked up COc1cccc(-c2ccc(S(=O)(=O)Nc3onc(C)c3Br)s2)c1 and its pIC50 for human ETA receptors (Homo sapiens) was 5.49

I looked up Cc1noc(NS(=O)(=O)c2ccc(C#CC(C)(C)C)s2)c1Br and its pIC50 for human ETA receptors (Homo sapiens) was 5.95

I looked up CCCc1sc2ccccc2c1S(=O)(=O)Nc1onc(C)c1Br and its pIC50 for human ETA receptors (Homo sapiens) was 7.62

I looked up Cc1noc(NS(=O)(=O)c2cccn2-c2ccccc2)c1Br and its pIC50 for human ETA receptors (Homo sapiens) was 4.74

I looked up Cc1noc(NS(=O)(=O)c2cc(-c3ccc(C(C)C)cc3)cs2)c1Br and its pIC50 for human ETA receptors (Homo sapiens) was 5.26

I looked up Cc1noc(NS(=O)(=O)c2c(C(C)C)sc3ccccc23)c1Br and its pIC50 for human ETA receptors (Homo sapiens) was 8.30

I looked up Cc1noc(NS(=O)(=O)c2ccsc2C(=O)Nc2ccc(-c3ccccc3)cc2)c1Br and its pIC50 for human ETA receptors (Homo sapiens) was 7.42

I looked up Cc1noc(NS(=O)(=O)c2cc(-c3ccccc3)cs2)c1Br and its pIC50 for human ETA receptors (Homo sapiens) was 6.65

I looked up Cc1cc(S(=O)(=O)Nc2onc(C)c2Br)c(C)o1 and its pIC50 for human ETA receptors (Homo sapiens) was 6.34

I looked up Cc1noc(NS(=O)(=O)c2cccn2-c2ccc(-c3ccccc3)cc2)c1Br and its pIC50 for human ETA receptors (Homo sapiens) was 5.04

I looked up Cc1ccsc1S(=O)(=O)Nc1onc(C)c1Br and its pIC50 for human ETA receptors (Homo sapiens) was 6.19

I looked up Cc1noc(NS(=O)(=O)c2ccn(-c3ccc(C(C)C)cc3)c2)c1Br and its pIC50 for human ETA receptors (Homo sapiens) was 6.08

I looked up COC(=O)c1sccc1S(=O)(=O)Nc1onc(C)c1Br and its pIC50 for human ETA receptors (Homo sapiens) was 7.68

I looked up COc1ccsc1S(=O)(=O)Nc1onc(C)c1C and its pIC50 for human ETA receptors (Homo sapiens) was 5.60

I looked up Cc1cc(S(=O)(=O)Nc2onc(C)c2Br)c(C)s1 and its pIC50 for human ETA receptors (Homo sapiens) was 7.02

I looked up CCCCc1ccc(NC(=O)c2sccc2S(=O)(=O)Nc2onc(C)c2Br)cc1 and its pIC50 for human ETA receptors (Homo sapiens) was 7.36

I looked up COc1ccccc1-c1ccc(S(=O)(=O)Nc2onc(C)c2Br)s1 and its pIC50 for human ETA receptors (Homo sapiens) was 6.42

I looked up COC(=O)c1sccc1S(=O)(=O)Nc1onc(C)c1C and its pIC50 for human ETA receptors (Homo sapiens) was 6.44

I looked up Cc1noc(NS(=O)(=O)c2ccco2)c1Br and its pIC50 for human ETA receptors (Homo sapiens) was 6.12

---

Readout type: melting point

Short answer for Cc1ccc(OCc2sccc2S(=O)(=O)Nc2onc(C)c2Br)cc1 : melting point was 128 to 130 °C

Short answer for Cc1noc(NS(=O)(=O)c2ccc(-c3ccon3)s2)c1Br [Example 10] : melting point was 120 to 123 °C

Short answer for Cc1noc(NS(=O)(=O)c2ccsc2C(N)=O)c1Br : melting point was 168 to 170 °C

Short answer for Cc1noc(NS(=O)(=O)c2ccsc2C(=O)Nc2ccccc2O)c1Br : melting point was 42 to 44 °C

Short answer for Cc1cc(C)c(N(C(=O)c2sccc2S(N)(=O)=O)c2onc(C)c2Cl)c(C)c1O [Example 52] : melting point was 75 to 78 °C

Short answer for Cc1noc(NS(=O)(=O)c2ccc(COCc3ccccc3)s2)c1Br : melting point was 92 °C

---

System under test: human ETB receptor (Homo sapiens, UniProt P24530)
Construct: expressed in transfected cells; host or cells: COS7 cells
Method summary: Binding Test #2: inhibition of 125I-ET-1 binding to ETB receptors (transfected COS7 cell membranes)
Condition details: Table 1; † incubation at 24° C.; read-out: ETB
Give measured IC50 for each item. Keep answers brief.
Give the number; µM is assumed, so skip it.

Short answer for Cc1ccc(-c2ccc(S(=O)(=O)Nc3onc(C)c3Br)s2)o1 : IC50 was 7.5

Short answer for Cc1ccc(C=CCc2sccc2S(=O)(=O)Nc2onc(C)c2Br)c(C)c1 : IC50 was 2.97

Short answer for Cc1ccc(/C=C/c2sccc2S(=O)(=O)Nc2onc(C)c2Br)cc1 : IC50 was 0.413

Short answer for Cc1cc2c(cc1CC(=O)c1sccc1S(=O)(=O)Nc1onc(C)c1Cl)OCO2 : IC50 was 9

Short answer for COc1cc(C#N)c(NC(=O)c2sccc2S(=O)(=O)Nc2onc(C)c2Cl)c(OC)c1OC : IC50 was 12.5

Short answer for CC(=O)c1cc2c(cc1NC(=O)c1sccc1S(=O)(=O)Nc1onc(C)c1Cl)OCO2 : IC50 was 31.6

Short answer for Cc1ccc(NC(=O)c2c(S(=O)(=O)Nc3onc(C)c3Cl)c3ccccc3n2C)cc1 : IC50 was 14.7

Short answer for Cc1noc(NS(=O)(=O)c2sccc2-c2ccc3c(c2)OCO3)c1Br : IC50 was 79

Short answer for Cc1noc(NS(=O)(=O)c2ccsc2COc2ccc3c(c2)OCO3)c1Br : IC50 was 6.61

Short answer for Cc1noc(NS(=O)(=O)c2sccc2/C=C/c2ccc3c(c2)OCO3)c1Br : IC50 was 10

Short answer for Cc1noc(NS(=O)(=O)c2ccc(-c3cccc(N)c3)s2)c1Br : IC50 was 2.63

Short answer for Cc1noc(NS(=O)(=O)c2ccsc2C(=O)NC(=O)c2ccc3c(c2)OCO3)c1Br : IC50 was 37

Short answer for Cc1noc(NS(=O)(=O)c2ccsc2CC(O)c2ccc3c(c2)OCO3)c1Cl (centres unmarked) : IC50 was 16

Short answer for Cc1noc(NS(=O)(=O)c2ccsc2C(=O)OCCc2ccc3c(c2)OCO3)c1Cl : IC50 was 6.2

Short answer for Cc1onc(NS(=O)(=O)c2c(Cc3ccc4c(c3)OCO4)sc3ccccc23)c1Cl : IC50 was 0.364

Short answer for Cc1cc2c(cc1C=CCc1sccc1S(=O)(=O)Nc1onc(C)c1Br)OCO2 : IC50 was 3.28

Short answer for Cc1noc(NS(=O)(=O)c2ccsc2C(=O)Cc2ccc3c(c2)OCO3)c1Cl : IC50 was 6.5

Short answer for Cc1ccc(CC(=O)c2sccc2S(=O)(=O)Nc2onc(C)c2Cl)c(C)c1 : IC50 was 4.8
